Tested on: HIV-1 IIIB
assay_explanation: Anti-HIV activity in MT-2 cells, MTT quantitation of viral CPE
Format: cell-based
test_context: MT-2 cells, 5 days; read-out: Antiviral Activity EC50 HIV-1 IIIB
pEC50: −log10 of the molar value.
measured_quantity: pEC50

Please review the entries below; each comes with its answer.
O=C(O)c1ccc(-c2ccc(-c3c4nc(c(-c5ccc(-c6ccc(C(=O)O)cc6)cc5)c5ccc([nH]5)c(-c5ccc(-c6ccc(C(=O)O)cc6)cc5)c5nc(c(-c6ccc(-c7ccc(C(=O)O)cc7)cc6)c6ccc3[nH]6)C=C5)C=C4)cc2)cc1: < 4.60
O=C(O)CNC(=O)c1ccc(-c2c3nc(c(-c4ccc(C(=O)NCC(=O)O)cc4)c4ccc([nH]4)c(-c4ccc(C(=O)NCC(=O)O)cc4)c4nc(c(-c5ccc(C(=O)NCC(=O)O)cc5)c5ccc2[nH]5)C=C4)C=C3)cc1: < 4.60

Asked: Reported pEC50, molecule O=C(O)CNC(=O)c1cc(C(=O)NCC(=O)O)cc(-c2ccc(-c3c4nc(c(-c5ccc(-c6cc(C(=O)NCC(=O)O)cc(C(=O)NCC(=O)O)c6)cc5)c5ccc([nH]5)c(-c5ccc(-c6cc(C(=O)NCC(=O)O)cc(C(=O)NCC(=O)O)c6)cc5)c5nc(c(-c6ccc(-c7cc(C(=O)NCC(=O)O)cc(C(=O)NCC(=O)O)c7)cc6)c6ccc3[nH]6)C=C5)C=C4)cc2)c1 : ____
Given back: 5.98
